Please respond with reported Reporter expression (%) mean, DMSO for every item in the list.
# System: U251 human glioblastoma cell line
# protocol_notes: in vitro FM-HCR assay of MGMT activity (mPlum O^6MeG reporter plasmid)
# Format: cell-based
# condition_summary: 0.1% DMSO; U251 cells; flow cytometry 24 h after transfection; damaged/undamaged reporter; inversely related to MGMT activity
One number for each entry, in %.

G160H: MGMT polypeptide with mutation G160H (protein) MDKDCEMKRTTLDSPLGKLELSGCEQGLHEIKLLGKGTSAADAVEVPAPAAVLGGPEPLMQCTAWLNAYFHQPEAIEEFPVPALHHPVFQQESFTRQVLWKLLKVVKFGEVISYQQLAALAGNPKAARAVGGAMRGNPVPILIPCHRVVCSSGAVGNYSHGLAVKEWLLAHEGHRLGKPGLGGSSGLAGAWLKGAGATSGSPPAGRN    10.3

Note to self: Reporter expression (%) mean, DMSO recorded for L33P: MGMT polypeptide with mutation L33P (protein) MDKDCEMKRTTLDSPLGKLELSGCEQGLHEIKPLGKGTSAADAVEVPAPAAVLGGPEPLMQCTAWLNAYFHQPEAIEEFPVPALHHPVFQQESFTRQVLWKLLKVVKFGEVISYQQLAALAGNPKAARAVGGAMRGNPVPILIPCHRVVCSSGAVGNYSGGLAVKEWLLAHEGHRLGKPGLGGSSGLAGAWLKGAGATSGSPPAGRN was 12.3
